The measurements presented in this section are drawn from patent US10202339B2.

Tested System: IDH2 R140Q (Homo sapiens (Human), UniProt P48735, R140Q)
Sequence (P48735 40-452 R140Q): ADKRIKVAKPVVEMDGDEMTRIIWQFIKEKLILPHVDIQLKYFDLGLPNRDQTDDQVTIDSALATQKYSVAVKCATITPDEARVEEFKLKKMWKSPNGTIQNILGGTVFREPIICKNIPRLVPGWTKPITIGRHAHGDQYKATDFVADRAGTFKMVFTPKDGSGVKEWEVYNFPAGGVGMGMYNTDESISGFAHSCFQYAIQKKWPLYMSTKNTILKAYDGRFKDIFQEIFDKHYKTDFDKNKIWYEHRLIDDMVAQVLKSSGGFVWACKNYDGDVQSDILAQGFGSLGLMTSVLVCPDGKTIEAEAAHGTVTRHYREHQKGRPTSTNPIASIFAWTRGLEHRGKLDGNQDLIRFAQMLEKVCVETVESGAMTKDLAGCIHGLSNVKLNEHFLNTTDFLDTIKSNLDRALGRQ
Test Details: IDH2 R140Q enzymatic cofactor depletion assay (diaphorase/resazurin)
Test Conditions: IDH2 R140Q enzyme, one hour preincubation with compound, one hour reaction; read-out: Enz R140Q
pIC50: −log10 of the molar value.
Kindly supply the reported pIC50 values for the records listed here.

Recorded pIC50 (compound O=C(Nc1ccccc1)Nc1cc(S(=O)(=O)NC2CC2)ccc1-c1ccccc1 ): 6.00 to 7.00

// pIC50 value for CC1(NS(=O)(=O)c2ccc(-c3ccsc3)c(NC(=O)Nc3cccc(C(F)(F)F)c3)c2)CC1 : 6.00 to 7.00

pIC50 reported for this compound O=C(Nc1ccc(F)c(C(F)(F)F)c1)Nc1cc(S(=O)(=O)NCC(F)(F)F)ccc1C1CCCCO1 (stereo not shown) : 6.00 to 7.00

For this compound ( O=C(Nc1ccc(F)c(Cl)c1)Nc1cc(S(=O)(=O)NCC(F)(F)F)ccc1-c1cccnc1 ), measured pIC50 is 5.00 to 6.00
